# conditions: in anisole, 283.15 K
measurement-kind: solubility (mole fraction)

[
  {
    "mol-smiles": "O=[N+]([O-])c1cc[nH]n1",
    "measurement-kind": "solubility (mole fraction)",
    "experimental-value": 0.00502
  }
]

---

# conditions: in anisole, 313.15 K

[
  {
    "mol-smiles": "O=[N+]([O-])c1cc[nH]n1",
    "solubility (mole fraction)": 0.0112
  }
]

---

# conditions: in benzonitrile, 293.15 K

[
  {
    "mol-smiles": "O=[N+]([O-])c1cc[nH]n1",
    "solubility (mole fraction)": 0.0253
  }
]

---

# conditions: in mesitylene, 318.15 K
measurement-kind: solubility (mole fraction)

[
  {
    "mol-smiles": "O=[N+]([O-])c1cc[nH]n1",
    "experimental-value": 0.00476
  }
]

---

# conditions: in 1,2-dichlorobenzene, 288.15 K

[
  {
    "mol-smiles": "O=[N+]([O-])c1cc[nH]n1",
    "solubility (mole fraction)": 0.00242
  }
]

---

# conditions: in n-octanol, 308.15 K

[
  {
    "mol-smiles": "O=[N+]([O-])c1cc[nH]n1",
    "solubility (mole fraction)": 0.0272
  }
]

---

# conditions: in benzyl alcohol, 318.15 K

[
  {
    "mol-smiles": "O=[N+]([O-])c1cc[nH]n1",
    "solubility (mole fraction)": 0.0672
  }
]

---

# conditions: in 1,2-dichlorobenzene, 323.15 K

[
  {
    "mol-smiles": "O=[N+]([O-])c1cc[nH]n1",
    "solubility (mole fraction)": 0.0197
  }
]

---

# conditions: in n-octanol, 323.15 K

[
  {
    "mol-smiles": "O=[N+]([O-])c1cc[nH]n1",
    "solubility (mole fraction)": 0.0429
  }
]

---

# conditions: in benzyl alcohol, 303.15 K

[
  {
    "mol-smiles": "O=[N+]([O-])c1cc[nH]n1",
    "solubility (mole fraction)": 0.0452
  }
]

---

# conditions: in n-octanol, 298.15 K

[
  {
    "mol-smiles": "O=[N+]([O-])c1cc[nH]n1",
    "solubility (mole fraction)": 0.0192
  }
]

---

# conditions: in mesitylene, 323.15 K
measurement-kind: solubility (mole fraction)

[
  {
    "mol-smiles": "O=[N+]([O-])c1cc[nH]n1",
    "measurement-kind": "solubility (mole fraction)",
    "experimental-value": 0.00578
  }
]

---

# conditions: in benzonitrile, 318.15 K

[
  {
    "mol-smiles": "O=[N+]([O-])c1cc[nH]n1",
    "solubility (mole fraction)": 0.0631
  }
]

---

# conditions: in mesitylene, 308.15 K
measurement-kind: solubility (mole fraction)

[
  {
    "mol-smiles": "O=[N+]([O-])c1cc[nH]n1",
    "experimental-value": 0.00335
  }
]

---

# conditions: in mesitylene, 288.15 K

[
  {
    "mol-smiles": "O=[N+]([O-])c1cc[nH]n1",
    "solubility (mole fraction)": 0.00162
  }
]

---

# conditions: in benzonitrile, 313.15 K
measurement-kind: solubility (mole fraction)

[
  {
    "mol-smiles": "O=[N+]([O-])c1cc[nH]n1",
    "experimental-value": 0.0486
  }
]
